Listed below: pKd values for each entry.
- target.of.assay: biotin-labeled SARS-COV-2 RBD domain (SARS-CoV-2, UniProt P0DTC2 319-541)
- assay.summary: SPR, Biacore T200, biotin-RBD on SA chip, antibody as analyte
pKd: −log10 of the molar value.
value.kind: pKd

INSERT INTO results (binder, val) VALUES
  ('ABU-392 (antibody, V domains shown) VH: EVQLVESGGGLIQPGGSLRLSCAASEFIVSRNYMSWVRQAPGKGLEWVSVIYSGGSTYYADSVKGRFTISRDNSKNTLNLQMNSLRAEDTAVYYCARDYGDYYFDYWGQGTLVTVSS VL: EIVLTQSPGTLSLSPGERATLSCRASQGVSSFLAWYQQKPGQAPRLLIHGASSRATGIPDRFSGSGSGTDFTLTITRLEPEDFAVYYCQQYGSSPRTFGQGTKVEIK', '> 8.00'),
  ('ABU-257 (antibody, V domains shown) VH: EVQLVESGGGLIQPGGSLRLSCAASGFTVSSNYMSWVRQAPGKGLEWVSVIYSGGSTYYADSVKGRFTISRDNSKNTLYLQMNSLRAEDTAVYYCARVTRAGAAGDGGAFDIWGQGTMVTVSS VL: QSALTQPASVSGSPGQSITISCTGTSSDVGSYNLVSWYQQHPGKAPKLMIYEVSKRPSGVSNRFSGSKSGNTASLTISGLQAEDEADYYCCSYAGSSLWVFGGGTKLTVL', '> 8.00'),
  ('ABU-369 (antibody, V domains shown) VH: EVQLVESGGGLIQPGGSLRLSCAASGLTVSSNYMSWVRQAPGKGLEWVSVIYSGGSTFYADSVKGRFTISRDNSKNTLYLQMNSLRAEDTAVYYCARDLYYYGMDVWGQGTTVTVSS VL: AIQLTQSPSSLSASVGDRVTITCRASQGISSYLAWYQQKPGKAPKLLIFAASTLQSGVPSRFSGSGSGTDFTLTISSLQPEDFATYYCQQLDSYPLFGGGTKVEIK', '> 8.00'),
  ('ABU-208 (antibody, V domains shown) VH: QVQLVESGGGVVQPGRSLRLSCVASGFTFSNYDMHWVRQAPGKGLEWVTVISSDGNNRRYADSVKGRFTISRDNSKNMLYLQMNSLKAEDTAVYYCARDEVIAVATGEGMDVWGQGTTVTVSP VL: EIVMTQSPAILSVSPGERATLSCRASQSVTRNLAWYQQKPGQAPRLLIYGASTRATNIPARFSGSGFGTEFTLIISSLQSEDFAVYYCQQYSNWPLYTFGQGTKLEIK', '> 9.00'),
  ('ABU-355 (antibody, V domains shown) VH: EVQLVESGGGLVQPGGSLRLSCAASGITVRSNYMSWVRQAPGKGLEWVSVIYSGGSTFYADSVKGRFTISRDNSKNTLYLQMNSLRAEDTAVYYCARDLISRGMDVWGQGTTVTVSS VL: DIQLTQSPSSLSASVGDRVTITCRASQGISSYLAWYQQKPGKAPKLLIYAASTLQSGVPSRFSGSGSGTDFTLTISSLQPEDFATYYCQQLNGYPHSAFGPGTKVDIK', '> 9.00');
